Ref: patent US20200057058A1

# Measured Target: monomeric streptavidin variant mSA2
# Experimental Protocol: fluorescent binding curve, labeled mSA2 in 50% blood serum, 4 h; quadratic fit
Measured Parameter: [P]T (total concentration of binding sites) (nM)

{"Binder": "3xSP30.3k thin film (3x rcSso7d.SA-PNIPAM conjugate, PNIPAM Mn 30.3 kDa) (designed binder, maleimide end-functionalized PNIPAM (Mn 30.3 kDa) on the N-terminal Cys; film lightly crosslinked with glutaraldehyde) MGSSHHHHHHSSGLVPRGSHMCATVKFTYQGEEKQVDISKIKIVARDGQYIDFKYDEGGGAYGYGWVSEKDAPKELLQMLEKQGGGGSGGGGSMATVKFTYQGEEKQVDISKIKIVARDGQYIDFKYDEGGGAYGYGWVSEKDAPKELLQMLEKQGGGGSGGGGSMATVKFTYQGEEKQVDISKIKIVARDGQYIDFKYDEGGGAYGYGWVSEKDAPKELLQMLEKQGG", "Display Unit": "nM", "Reported Result": 5.7}
{"Binder": "3xSP9.6k thin film (3x rcSso7d.SA-PNIPAM conjugate, PNIPAM Mn 9.6 kDa) (designed binder, maleimide end-functionalized PNIPAM (Mn 9.6 kDa) on the N-terminal Cys; film lightly crosslinked with glutaraldehyde) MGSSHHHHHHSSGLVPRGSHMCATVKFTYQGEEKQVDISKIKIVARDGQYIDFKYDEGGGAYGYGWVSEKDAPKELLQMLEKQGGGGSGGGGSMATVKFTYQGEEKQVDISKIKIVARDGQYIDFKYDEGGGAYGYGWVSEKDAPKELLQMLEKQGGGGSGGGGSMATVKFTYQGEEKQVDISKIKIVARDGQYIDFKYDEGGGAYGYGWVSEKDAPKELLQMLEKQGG", "Display Unit": "nM", "Reported Result": 9.4}
{"Binder": "rcSso7d.SA monolayer (designed binder, EDC/NHS-activated protein coupled to an amine-functionalized silicon wafer, also called monomeric rcSso7d.SA; surface-immobilized rcSso7d.SA) MGSIHHHHHHSSGLVPRGSHMCATVKFTYQGEEKQVDISKIKIVARDGQYIDFKYDEGGGAYGYGWVSEKDAPKELLQMLEKQ", "Display Unit": "nM", "Reported Result": 0.4}
{"Binder": "3xSP77.6k thin film (3x rcSso7d.SA-PNIPAM conjugate, PNIPAM Mn 77.6 kDa) (designed binder, maleimide end-functionalized PNIPAM (Mn 77.6 kDa) on the N-terminal Cys; film lightly crosslinked with glutaraldehyde) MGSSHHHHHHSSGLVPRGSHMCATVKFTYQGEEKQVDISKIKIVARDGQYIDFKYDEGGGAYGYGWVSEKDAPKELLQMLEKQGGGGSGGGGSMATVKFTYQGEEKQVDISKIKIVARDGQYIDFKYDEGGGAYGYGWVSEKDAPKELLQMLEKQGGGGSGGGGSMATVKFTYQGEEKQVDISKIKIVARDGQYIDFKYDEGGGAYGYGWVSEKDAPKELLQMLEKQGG", "Display Unit": "nM", "Reported Result": 4.5}
